# Test system: Plasmodium berghei
# Experimental details: Screen against P. berghei liver stage (PbLuc), transformed with Luciferase, at 10uM
# Assay type: functional, HepG2
# Stated conditions: tested at 10 uM
In all, about 69,000 compounds went through this assay and about 8,600 (12%) showed an effect of 50% or more. The sample as a whole holds a higher share of strong results than the screen did.
Metric: INHIBITION (%)
One number for each entry, in %.

Report INHIBITION for each item below.
1. Cc1cc(C(=O)N2CC[C@@H]3CO[C@@H](CN4CCCC4)[C@@H]3C2)no1
2. CC(C)C(=O)Nc1cccc(CNC(=O)CSCc2ccccn2)c1
3. CNc1nc(C)c(C(=O)N2CCCCC2CN2CCCCCC2)s1 (configuration not stated)
4. CCc1nc(CCn2cc(-c3nccn3C)nn2)no1
5. CCc1nc(Cn2ccnc2-c2nccn2C)no1
6. CC(C)C(=O)N1CCCC([C@@H]2C[C@H](C(F)F)n3ncnc3N2)C1 (some centres not stated)
7. Cc1cc(-c2ccc(=O)n(CCNC(=O)C3CC3)n2)c(C)o1

Result block:
1. 23.3
2. 24.2
3. 50
4. 23
5. 45.2
6. 5.295
7. -21.2

###

Please go through the items and note down their INHIBITION.
# System: Plasmodium berghei
# Experimental details: Screen against P. berghei liver stage (PbLuc), transformed with Luciferase, at 10uM
# Format: functional, HepG2
# Stated conditions: tested at 10 uM
The campaign covered roughly 69,000 compounds. About 8,600 (12%) showed an effect of 50% or more. Only a selection was taken, and strong results are over-represented in it overall.
One number for each entry, in %.

Cn1cccc1C(=O)NCc1cn2c(n1)CN(CC1CCOC1)CC2 (centres undefined)	58.4
COC(=O)c1ccc(C(=O)NCc2nn(C)c3c2COCC3)cc1	6
O=C(O)c1sccc1Oc1ccc(NC(=O)C2CC2)cc1	22.6
CCn1ccnc1CN1CCN(C(C)C(=O)NC2CCCC2)CC1 (centres undefined)	36.85
CN1C[C@@H](c2cccc(F)c2)[C@H]2[C@H]1CCCCCN2C(=O)C1CC1	12.2535

Below are 8 compounds. Give each one its INHIBITION.
1. CC1(NC(=O)Cc2csc(-c3ccccc3Cl)n2)CCS(=O)(=O)C1 (centres undefined)
2. O=C(c1cc2c(s1)CCC2)N1CCC(c2cnccn2)CC1
3. CC(=O)c1c(F)cccc1NCC(O)C1CC1 (centres undefined)
4. CN(CC1(O)CCN(c2ccnc3ccncc23)CC1)C(=O)CCN
5. N[C@@H](Cc1ccccc1)c1nnc(S(=O)(=O)Cc2cccc(Cl)c2)o1
6. Cn1cccc1C(=O)NCc1cn2c(n1)CN(CC1CCOCC1)CC2
7. CN1CCCCc2c1nc1c(c2N)CCC1
8. Oc1ccc(CCC2CCCCN2Cc2noc(C3CC3)n2)cc1 (centres undefined)

Result block:
1. 34.6
2. 28.5
3. 26
4. -5.78
5. -3.73
6. -4.88
7. 8.46
8. 26.5

Query `Cn1cc(C(=O)NCc2cn3c(n2)CN(Cc2ccccn2)CC3)cn1` yields INHIBITION of 53

###

# System: Plasmodium berghei
# Experimental details: Screen against P. berghei liver stage (PbLuc), transformed with Luciferase, at 10uM
# Format: functional, HepG2
# Stated conditions: tested at 10 uM
Among all 69,000 compounds or so, about 8,600 (12%) showed an effect of 50% or more. The sample holds strong results, similar compounds and a random draw of the others, so the mix is not that of the screen.
Decide using INHIBITION alone. Strictly below 10%: Yes. Equal to or above 10%: No.

Query block: Here's an entry: `CC(=O)NCc1nnc2n1CCN(c1nc(C)nc3sccc13)CC2` . Is its INHIBITION below 10%?
Result block: No

Query block: Could you please tell me whether INHIBITION recorded for `CCCc1nc(C)cc(N2CCC3(CCC(=O)N(CC(N)=O)C3)CC2)n1` is less than 10%?
Result block: Yes

Query block: Is INHIBITION strictly under 10% for the entry Cc1noc(C)c1C(=O)N1CCCC1c1c(C)nn(C)c1C (stereo unspecified) ?
Result block: Yes

###

# Test system: Plasmodium berghei
# Experimental details: Screen against P. berghei liver stage (PbLuc), transformed with Luciferase, at 10uM
# Type: functional, HepG2
# Stated conditions: tested at 10 uM
About 8,600 (12%) of roughly 69,000 compounds showed an effect of 50% or more. Only a selection was taken, and strong results are over-represented in it overall.
Metric: INHIBITION (%)
Answers are plain numbers, in %.

COc1ncccc1CNC(=O)NC1CCOc2ccccc21 (stereo not drawn)	29.6
CNC(=O)CN1CCC(NC2CSCCc3ccccc32)CC1 (stereo not drawn)	-18.9

// below: INHIBITION requested for another molecule
response.value for CC(C)Oc1ncccc1CNC(=O)NC1CCOc2ccccc21 (stereo not drawn) (field: INHIBITION) = 42.9

###

# Tested on: Plasmodium berghei
# Experimental details: Screen against P. berghei liver stage (PbLuc), transformed with Luciferase, at 10uM
# Assay type: functional, HepG2
# Stated conditions: tested at 10 uM
Hit rate of the full screen: of about 69,000 compounds, about 8,600 (12%) showed an effect of 50% or more. The sample as a whole holds a higher share of strong results than the screen did.
Assignment: determine reported INHIBITION for the given molecules.

Worked set:
Cc1[nH]c(=O)[nH]c(=O)c1CC(=O)N1CCCN(CC2CC2)C(C(C)C)C1 (configuration not stated)	-69.3%
CC(c1ccon1)N(C)S(=O)(=O)NCc1ccccc1 (configuration not stated)	50.9%
Cc1c(C)n(Cc2ccccn2)c2nc3c(c(N)c12)CCCCC3	55.3%
Fc1ccc(CN2CCCn3cnc(COCC4CC4)c3C2)cc1	45.8%
CC(NC(=O)NCCCN(C)S(C)(=O)=O)c1ccc(Cl)cc1 (configuration not stated)	62.6%
CCN1CC2(CCN(C(=O)c3nc4cc(C)ccn4c3F)CC2)CC1=O	7.65%
CCS(=O)(=O)N1C[C@H]2CCC[C@@]2(COc2ccccn2)C1	-23.7%
CCCn1nc(C(=O)N(C)Cc2cnn(C)c2)ccc1=O	48.7%

Consider the following items and state reported INHIBITION for each.
1. CN(C)c1cccc(CNCc2ccc(N3CCOCC3)cc2)c1
2. COCC1COCCC12CCN(C(=O)COc1ccccc1)CC2 (configuration not stated)
3. CC(C)C1CN(C(=O)c2cc(=O)[nH]c(=O)[nH]2)CCCN1CC1CC1 (configuration not stated)

Result block:
1: 34.1%; 2: -10.3%; 3: 74.8%

// each molecule listed below needs its INHIBITION
1. CC1CN(C)CCN1CC(=O)NCCOc1cccc(F)c1 (configuration not stated)
2. CC(C1CC1)N(C)C(=O)c1ccc(-n2ncc(C#N)c2N)cc1 (configuration not stated)
3. CC(c1nccs1)N(C)S(=O)(=O)NCc1ccccc1 (configuration not stated)
4. Cn1cc(CN2C[C@H]3CCC[C@@]3(COCC3CC3)C2)cn1
5. CN(CCc1ccccn1)c1cnn(C)c(=O)c1Br

Result block:
1: 22.007%; 2: -61.4%; 3: -1.6%; 4: 8.6%; 5: -18.9%

Please state INHIBITION for every molecule in the list that follows.
1. NC(=O)COc1cccc(C(=O)NCc2ccc(Cl)s2)c1
2. CC(CC(=O)Nc1ncn(CC(=O)N2CCCCCC2)n1)C1CC1 (configuration not stated)
3. CN(CC1CCCCO1)S(=O)(=O)c1cccc(C(=O)N2CCOCC2)c1 (configuration not stated)
4. Cc1c(C)n(Cc2ccccn2)c2nc3c(c(N)c12)CCCCCC3
5. NC(=O)CN1CCC(c2noc3cc(F)ccc23)CC1
6. CC(C)COC1CC2(CCN(C(=O)Cc3ccccn3)CC2)C1

Result block:
1: 3.03%; 2: -28.8%; 3: 1.19%; 4: 49.7%; 5: 18.7%; 6: 64.7%

###

# System: Plasmodium berghei
# Experimental details: Screen against P. berghei liver stage (PbLuc), transformed with Luciferase, at 10uM
# Format: functional, HepG2
# Stated conditions: tested at 10 uM
About 8,600 (12%) of roughly 69,000 compounds showed an effect of 50% or more. The entries come from a sample that favours strong results as a whole.
Metric: INHIBITION (%)
Numbers only, in %.

Cn1ccc(C(=O)NCc2cccc(N3CCCCC3=O)c2)cc1=O	45.9
Cc1cc(-c2cnc(N3CCCC(C)C3)nc2C(C)C)on1 (configuration not stated)	26.3
CN(Cc1ccc(F)cc1)C(=O)CN1CCOC(Cn2cccn2)C1 (configuration not stated)	-4.16
CC(=O)N1CCN(CC(N)=O)CC(COc2ccccc2)C1 (configuration not stated)	-17.7
CCS(=O)(=O)N1CCC2(CC1)COC(COc1cccnc1)C2 (configuration not stated)	5.63
O=C(Nc1cccc(CNCc2ccsc2)c1)C1CC1	21.8
Cc1ncccc1NC(=O)c1nc2c(n1C)CCN(C(=O)C1CC1)C2	66.6
CN(Cc1nnc2n1CCC2)C(=O)c1ccc2c(c1)OCCCO2	26.4
CCc1nc(CN(C)CC(=O)NC(C)C)cs1	14.8
Cn1ccc(C(=O)NCc2cccc(CN3CCCC3)c2)cc1=O	48.8

// each listed molecule needs a value for INHIBITION
1. COc1c(C2CCCN2C(=O)c2cc(C)on2)c(C)nn1C (configuration not stated)
2. CC(=O)Nc1ccc(CNC(C)c2c(C)nn(C)c2C)cc1 (configuration not stated)
3. C[C@H]1C(=O)NC[C@H]2CN(Cc3cccc(F)c3)C[C@H]21
4. Cn1c(C(=O)NC2CCCC2)nc2c1CCN(Cc1ccccc1)C2
5. O=C(Nc1cccc(CNCc2csc(Br)c2)c1)C1CC1
6. O=C(c1c2c(NCC3CC3)ncnc2n2ccccc12)N1CCCC1
7. Cc1nccn1Cc1cccc(CNC(=O)c2ccn(C)c(=O)c2)c1

Result block:
1: 14.1; 2: -42.1; 3: 23.5; 4: -18.5; 5: 70.7; 6: 26.5; 7: 53.8
